Tested on: Lung epithelial cells A549
Protocol: Sirius red assay, TGF-β1-induced fibrosis in lung epithelial cells A549
Format: cell-based
Experimental Conditions: Homo sapiens; A549, 10 ng/ml TGF-β1, Sirius Red OD 570 nm; read-out: IC50 of fibrosis inhibition
Attribute Measured: IC50 (µM)
Answer format: numeric, µM implied, no suffix.

The reported IC50 value, Lung epithelial cells A549, for CCc1oc2ccccc2c1C(=O)c1cc(Br)c(O)c(Br)c1 reads 4.25

Data provenance: patent US11951089B2
